Test system: ROCK2;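 also: KINOMEscan kinase panel screen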
Conditions: concentration: 1 μM, replicates: in singlicate; n = 1
measure: %Inh (%)

>  <molecule>
c1ccc(-c2cnc3nccnn23)cc1 [AH20685]

>  <test_result>
0

$$$$
>  <molecule>
Cn1cc(-c2ccc3c(c2)CCN3C(=O)Cc2cccc(F)c2)c2c(N)ncnc21 [GSK2603358]

>  <test_result>
64

$$$$
>  <molecule>
CSc1cccc2c(-c3ccncn3)c(-c3ccc(F)cc3)nn12 [GW514786]

>  <test_result>
19

$$$$
>  <molecule>
COC(=O)Nc1nc2ccc(Oc3ccc(NC(=O)Nc4cc(C(F)(F)F)ccc4F)cc3)cc2n1C.Cl [GW692089]

>  <test_result>
39

$$$$
>  <molecule>
O=C(Nc1cccc(-c2nn3ncccc3c2-c2ccnc(Nc3ccccc3)n2)c1)c1c(F)cccc1F [GSK198271]

>  <test_result>
0

$$$$
>  <molecule>
Cl.Cl.NCC(NC(=O)c1cc(-c2ccccc2)c(-c2ccnc3[nH]ccc23)s1)c1ccccc1 (stereo not drawn) [GSK1321561]

>  <test_result>
98.9

$$$$
>  <molecule>
FC(F)(F)c1ccc(/C=C/c2cncnc2Nc2ccc3[nH]c(Cc4ccccc4)nc3c2)cc1 [GW709199]

>  <test_result>
0

$$$$
>  <molecule>
Oc1cc(Nc2ccnc3cc(I)ccc23)ccc1F [GW552771]

>  <test_result>
27

$$$$
>  <molecule>
COc1ccc(CNC(=O)NC2CCN(c3ccnc(Nc4ccc(F)cc4)n3)CC2)cc1 [GSK1379788]

>  <test_result>
31

$$$$
